Readings of MIC for the listed compounds
System: Staphylococcus aureus
Assay: Antibacterial activity against Staphylococcus aureus ATCC 29213 assessed as growth inhibition after 18 hrs by broth microdilution method
Type: functional
Conditions: ATCC 29213, 18 h

{"Compound": "O=C1CN(/N=C/c2ccc([N+](=O)[O-])o2)C(=O)N1 [NITROFURANTOIN]", "MIC / µg/mL": 16}
{"Compound": "Cc1onc(-c2ccccc2)c1C(=O)N[C@@H]1C(=O)N2[C@@H]1SC(C)(C)[C@@H]2C(=O)O [OXACILLIN]", "MIC / µg/mL": 0.2}
{"Compound": "O=C(N[C@H](CO)[C@H](O)c1ccc([N+](=O)[O-])cc1)C(Cl)Cl [CHLORAMPHENICOL]", "MIC / µg/mL": 1}
{"Compound": "CN[C@H](CC(C)C)C(=O)N[C@H]1C(=O)N[C@@H](CC(N)=O)C(=O)N[C@H]2C(=O)N[C@H]3C(=O)N[C@H](C(=O)N[C@H](C(=O)O)c4cc(O)cc(O)c4-c4cc3ccc4O)[C@H](O)c3ccc(c(Cl)c3)Oc3cc2cc(c3O[C@@H]2O[C@H](CO)[C@@H](O)[C@H](O)[C@H]2O[C@H]2C[C@](C)(N)[C@H](O)[C@H](C)O2)Oc2ccc(cc2Cl)[C@H]1O [VANCOMYCIN]", "MIC / µg/mL": 1.5}

----------
System: Staphylococcus aureus
Assay: Bactericidal activity against Staphylococcus aureus ATCC 6538 after 18 hrs by broth microdilution method
Format: functional
Details: ATCC 6538, 18 h
Readout Label: MBC (µg/mL)

{"Compound": "CN[C@H](CC(C)C)C(=O)N[C@H]1C(=O)N[C@@H](CC(N)=O)C(=O)N[C@H]2C(=O)N[C@H]3C(=O)N[C@H](C(=O)N[C@H](C(=O)O)c4cc(O)cc(O)c4-c4cc3ccc4O)[C@H](O)c3ccc(c(Cl)c3)Oc3cc2cc(c3O[C@@H]2O[C@H](CO)[C@@H](O)[C@H](O)[C@H]2O[C@H]2C[C@](C)(N)[C@H](O)[C@H](C)O2)Oc2ccc(cc2Cl)[C@H]1O [VANCOMYCIN]", "Readout Label": "MBC", "Endpoint Result": 1.5}
{"Compound": "O=C1CN(/N=C/c2ccc([N+](=O)[O-])o2)C(=O)N1 [NITROFURANTOIN]", "Readout Label": "MBC", "Endpoint Result": 32}
{"Compound": "O=C(N[C@H](CO)[C@H](O)c1ccc([N+](=O)[O-])cc1)C(Cl)Cl [CHLORAMPHENICOL]", "Readout Label": "MBC", "Endpoint Result": 4}
{"Compound": "Cc1onc(-c2ccccc2)c1C(=O)N[C@@H]1C(=O)N2[C@@H]1SC(C)(C)[C@@H]2C(=O)O [OXACILLIN]", "Readout Label": "MBC", "Endpoint Result": 0.2}

----------
System: Staphylococcus aureus
Assay: Antibacterial activity against Staphylococcus aureus ATCC 6538 assessed as growth inhibition after 18 hrs by broth microdilution method
Format: functional
Settings: ATCC 6538, 18 h
Readout Label: MIC (µg/mL)

{"Structure Smiles": "O=C1CN(/N=C/c2ccc([N+](=O)[O-])o2)C(=O)N1", "Endpoint Result": 16}
{"Structure Smiles": "Cc1onc(-c2ccccc2)c1C(=O)N[C@@H]1C(=O)N2[C@@H]1SC(C)(C)[C@@H]2C(=O)O", "Endpoint Result": 0.2}
{"Structure Smiles": "CN[C@H](CC(C)C)C(=O)N[C@H]1C(=O)N[C@@H](CC(N)=O)C(=O)N[C@H]2C(=O)N[C@H]3C(=O)N[C@H](C(=O)N[C@H](C(=O)O)c4cc(O)cc(O)c4-c4cc3ccc4O)[C@H](O)c3ccc(c(Cl)c3)Oc3cc2cc(c3O[C@@H]2O[C@H](CO)[C@@H](O)[C@H](O)[C@H]2O[C@H]2C[C@](C)(N)[C@H](O)[C@H](C)O2)Oc2ccc(cc2Cl)[C@H]1O", "Endpoint Result": 1.5}
{"Structure Smiles": "O=C(N[C@H](CO)[C@H](O)c1ccc([N+](=O)[O-])cc1)C(Cl)Cl", "Endpoint Result": 1}
